Taken from the OPERA property sets (Mansouri et al. 2018).

Overview of recorded log10 Henry constant (atm·m³/mol) for various compounds
Reply briefly: the number, and no unit.

Solved entries:
Clc1ccc(-c2ccc(Cl)c(Cl)c2)c(Cl)c1; -3.92
CCCOC(C)=O; -3.66
CCCC#N; -4.28
Clc1ccc(-c2ccccc2Cl)cc1Cl; -3.8

# get_value(readout='log10 Henry constant (atm·m³/mol)', item= "Cc1cccc(O)c1C" ) -6.13

Record: ClC=CCCl (mixture of isomers) -2.62

Record: "Clc1ccc(Cl)c(-c2cc(Cl)c(Cl)cc2Cl)c1" -4.05

Record: "FCC(F)(F)F" -1.3

* * *

parameter.measured: melting point (°C)
# number only, unit °C dropped from output

Solved entries:
NNc1ccccc1; 19.6
NCCc1ccc(O)c(O)c1; 128
CCOC(=O)C(C)(C)C(=O)OCC; -30.4
ClCc1ccccc1Cl; -17

Let us examine a further case.
# get_value(readout='melting point', item= "Fc1ccccc1Cl" ) -43
